The reader will find pIC50 measurements below, all made with Proteasome chymotrypsin-like activity (S26 protein from RPMI8226 cells) (Homo sapiens).
Sequence (P28074 60-263 limits assumed): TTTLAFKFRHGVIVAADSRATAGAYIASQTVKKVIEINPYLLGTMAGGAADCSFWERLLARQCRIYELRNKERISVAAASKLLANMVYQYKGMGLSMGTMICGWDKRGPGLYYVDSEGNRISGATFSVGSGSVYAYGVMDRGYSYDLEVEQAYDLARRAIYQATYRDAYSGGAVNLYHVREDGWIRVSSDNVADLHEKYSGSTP
pIC50: −log10 of the molar value.

>  <Compound>
CC(C)C[C@H](NC(=O)C12CCCC1C(CNC(=O)c1cccn3ccnc13)=NO2)B(O)O (stereo partly shown)

>  <pIC50>
> 6.00

$$$$
>  <Compound>
CC(C)C[C@H](NC(=O)C1(Cc2ccccc2)CC(CNC(=O)c2cc(F)c(F)cc2Cl)=NO1)B(O)O (stereo partly shown)

>  <pIC50>
> 8.00

$$$$
>  <Compound>
CC(C)C[C@H](NC(=O)C1CC(c2ccc(-c3cccnc3)cc2)=NO1)B(O)O (stereo partly shown)

>  <pIC50>
> 7.30

$$$$

Record lookup: for Proteasome chymotrypsin-like activity (S26 protein from RPMI8226 cells) (Homo sapiens), what pIC50 belongs to CC(C)C[C@H](NC(=O)C1(Cc2ccccc2)CC(CNC(=O)c2ccn(C(C)C)n2)=NO1)B(O)O (stereo partly shown) ?
> 8.00

Item CC(C)C[C@H](NC(=O)C1(Cc2ccccc2)CC(CNC(=O)c2cccc(-c3ccccn3)c2)=NO1)B(O)O (stereo partly shown) with Proteasome chymotrypsin-like activity (S26 protein from RPMI8226 cells) (Homo sapiens) - pIC50?
> 8.00

Form field - read-out: pIC50; system: Proteasome chymotrypsin-like activity (S26 protein from RPMI8226 cells) (Homo sapiens); submitted item: CC(C)C[C@H](NC(=O)C1CC(C(=O)Nc2cccc(Cl)c2)=NO1)B(O)O (stereo partly shown)
> 6.60

Reported pIC50 for Proteasome chymotrypsin-like activity (S26 protein from RPMI8226 cells) (Homo sapiens), given CC(C)C[C@H](NC(=O)C1CC(C(=O)Nc2cccc3ccccc23)=NO1)B(O)O (stereo partly shown) ?
> 7.30

Short answer please: pIC50, Proteasome chymotrypsin-like activity (S26 protein from RPMI8226 cells) (Homo sapiens), entry CC(C)C[C@H](NC(=O)C1(Cc2ccccc2)CC(CNC(=O)c2cccc3cccnc23)=NO1)B(O)O (stereo partly shown)
> 8.00

Identify the measured pIC50 of CC(C)C[C@H](NC(=O)C1(Cc2ccccc2)CC(CNC(=O)c2cc(-c3ccccn3)nn2C(C)C)=NO1)B(O)O (stereo partly shown) for Proteasome chymotrypsin-like activity (S26 protein from RPMI8226 cells) (Homo sapiens).
> 8.00

Kindly state the measured pIC50 obtained for CC(C)[C@H](NC(=O)C1(Cc2ccccc2)CC(CNC(=O)c2cccc3ccccc23)=NO1)B(O)O (stereo partly shown) with Proteasome chymotrypsin-like activity (S26 protein from RPMI8226 cells) (Homo sapiens).
> 8.00

Which measured pIC50 belongs to CC(C)C[C@H](NC(=O)C1(Cc2ccccc2)CC(CNC(=O)c2cccc(C(F)(F)F)n2)=NO1)B(O)O (stereo partly shown) , tested on Proteasome chymotrypsin-like activity (S26 protein from RPMI8226 cells) (Homo sapiens)?
> 8.00

Query pIC50 on Proteasome chymotrypsin-like activity (S26 protein from RPMI8226 cells) (Homo sapiens) for CC(C)C[C@H](NC(=O)C1(Cc2ccccc2)CC(COCc2cccc(Br)c2)=NO1)B(O)O (stereo partly shown)
> 8.00

Param readout= pIC50; system= Proteasome chymotrypsin-like activity (S26 protein from RPMI8226 cells) (Homo sapiens); entry= CC(C)C[C@H](NC(=O)C1(Cn2cccn2)CC(CNC(=O)c2nccc3ccccc23)=NO1)B(O)O (stereo partly shown) ; returns value.
> 8.00

Request - read-out pIC50 | tested on Proteasome chymotrypsin-like activity (S26 protein from RPMI8226 cells) (Homo sapiens) | compound CC(C)C[C@H](NC(=O)C1(Cc2ccccc2)CC(CNC(=O)c2c(Cl)cnn2C)=NO1)B(O)O (stereo partly shown)
> 8.00

Please provide the recorded pIC50 for Cc1nc(C(=O)NCC2=NOC(Cc3ccccc3)(C(=O)N[C@@H](CC(C)C)B(O)O)C2)c(Cl)s1 (stereo partly shown) , tested on Proteasome chymotrypsin-like activity (S26 protein from RPMI8226 cells) (Homo sapiens).
> 8.00

Missing value: pIC50, Proteasome chymotrypsin-like activity (S26 protein from RPMI8226 cells) (Homo sapiens), entry CC(C)C[C@H](NC(=O)C1CC([C@H](CC(C)C)NC(=O)Cc2ccccc2)=NO1)B(O)O (stereo partly shown) . Fill in?
> 7.00

Hi! What's the reported pIC50 for CC(C)C[C@H](NC(=O)[C@]1(Cc2ccccc2)CC(c2cccc(C(C)(C)C)c2)=NO1)B(O)O on Proteasome chymotrypsin-like activity (S26 protein from RPMI8226 cells) (Homo sapiens)?
> 6.30

Please state recorded pIC50 (tested on Proteasome chymotrypsin-like activity (S26 protein from RPMI8226 cells) (Homo sapiens)) of Cc1nc(C(=O)NCC2=NOC(Cc3ccccc3)(C(=O)N[C@@H](CC(C)C)B(O)O)C2)co1 (stereo partly shown)
> 7.60

Recorded pIC50 for COc1cccc(CC2(C(=O)N[C@@H](CC(C)C)B(O)O)CC(CNC(=O)c3cc(C(C)(C)C)nn3C(C)C)=NO2)c1 (stereo partly shown) with Proteasome chymotrypsin-like activity (S26 protein from RPMI8226 cells) (Homo sapiens), please?
> 8.00

Requested read-out pIC50, target or system Proteasome chymotrypsin-like activity (S26 protein from RPMI8226 cells) (Homo sapiens), entry CC(C)C[C@H](NC(=O)C1CC(C2CCCCC2)=NO1)B(O)O (stereo partly shown)
> 6.30

Under Proteasome chymotrypsin-like activity (S26 protein from RPMI8226 cells) (Homo sapiens): pIC50 value of Cc1nn(C(C)C)c(C(=O)NCC2=NOC(Cc3cccc(Cl)c3)(C(=O)N[C@@H](CC(C)C)B(O)O)C2)c1Cl (stereo partly shown) ?
> 8.00

Quick check: pIC50 on Proteasome chymotrypsin-like activity (S26 protein from RPMI8226 cells) (Homo sapiens), item CC(C)C[C@H](NC(=O)C1CC([C@H](CC(C)C)NC(=O)c2cc(Cl)ccc2Cl)=NO1)B(O)O (stereo partly shown) ?
> 7.60
